system: D-3-Hydroxybutyrate dehydrogenase (HBDH); test: Assessment of mediator inhibition of D-3-hydroxybutyrate dehydrogenase (assay rate before and after filtration); type: biochemical, Pseudomonas sp.; design: concentration or dose not given beside the values; conditions: after filtration, compared with control (no mediator)
Here, each record is paired with measured Residual enzyme activity after filtration (percentage of the original activity) data.
Number first, unit second: that is the form wanted.

These solved cases illustrate the format of a correct answer.
1. CC1=CC(=O)C(=O)C=C1 = 4%
2. C[n+]1cccc2c1-c1ncccc1C(=O)C2=O.O=S(=O)([O-])C(F)(F)F = 94%
3. C[N+](C)=c1ccc2nc3c(ccc4ccccc43)oc-2c1.[Cl-] = 16%
4. O=C1C(Cl)=CC(=Nc2ccc(O)cc2)C=C1Cl = 57%

Switching to the query record.
Given COS(=O)(=O)[O-].COc1cccc2c1nc1ccccc1[n+]2C [Compound 1-MeO-PMS, 1-Methoxy phenazine methosulphate] , state its recorded Residual enzyme activity after filtration (percentage of the original activity).
47%

###

test system: D-3-Hydroxybutyrate dehydrogenase (HBDH); assay: Assessment of mediator inhibition of D-3-hydroxybutyrate dehydrogenase (assay rate before and after filtration); type: biochemical, Pseudomonas sp.; conditions: enzyme reisolated from the mediator solution by filtration (30,000 cut-off), redissolved in Tris buffer
Assign Fulfilled to entries whose Assay Rate after filtration meets or exceeds 0.09 absorbance units/min; assign Not fulfilled to the rest.

Before answering, review these 6 worked examples.
1. O=C1C(=O)c2cccnc2-c2ncccc21 = Fulfilled
2. COS(=O)(=O)[O-].COc1cccc2c1nc1ccccc1[n+]2C [Compound 1-MeO-PMS, 1-Methoxy phenazine methosulphate] = Not fulfilled
3. C[n+]1cccc2c1-c1ncccc1C(=O)C2=O.O=S(=O)([O-])C(F)(F)F = Fulfilled
4. CC1=CC(=O)C(=O)C=C1 = Not fulfilled
5. C[N+](C)=c1ccc2nc3c(ccc4ccccc43)oc-2c1.[Cl-] = Not fulfilled
6. O=C1C(=O)c2ncccc2-c2ncccc21 = Fulfilled

Could you now look at the following compound, please?
Reported Assay Rate after filtration reaches at least 0.09 absorbance units/min for O=C1C(Cl)=CC(=Nc2ccc(O)cc2)C=C1Cl ?
Not fulfilled

###

Here, each record is paired with measured Assay Rate before filtration data.
tested on: D-3-Hydroxybutyrate dehydrogenase (HBDH); test: Assessment of mediator inhibition of D-3-hydroxybutyrate dehydrogenase (assay rate before and after filtration); assay type: biochemical, Pseudomonas sp.; details: 50 U/ml HBDH with mediator in Tris buffer pH 8.2, incubated 0.5 hours at 37.5 C, NADH at 340 nm; measure of efficiency as oxidant of NADH
Your answer should be a plain number; it is taken to be in absorbance units/min.

These solved cases illustrate the format of a correct answer.
1. O=C1C(=O)c2ncccc2-c2ncccc21 = 0.115
2. O=C1C(Cl)=CC(=Nc2ccc(O)cc2)C=C1Cl = 0.104
3. Cc1ccc2c(n1)-c1nc(C)ccc1C(=O)C2=O = 0.189
4. COS(=O)(=O)[O-].COc1cccc2c1nc1ccccc1[n+]2C [Compound 1-MeO-PMS, 1-Methoxy phenazine methosulphate] = 0.009
5. C[n+]1cccc2c1-c1ncccc1C(=O)C2=O.O=S(=O)([O-])C(F)(F)F = 0.150
6. C[N+](C)=c1ccc2nc3c(ccc4ccccc43)oc-2c1.[Cl-] = 0.008

Given O=C1C(=O)c2cccnc2-c2ncccc21 , state its recorded Assay Rate before filtration.
0.149

// repeat for CC1=CC(=O)C(=O)C=C1 and report
0.005
